Some compounds, each annotated with its measured minimum inhibitory concentration (MIC).
Tested on: Candida albicans IAM 4888
Test: MIC, two-fold agar dilution method
Format: cell-based
Conditions: Sabouraud agar
Respond numerically, and do not add a unit to the figure.

Q: Suppose we examine the compound Cc1c(N)nc(C(CC(N)=O)NCC(N)C(N)=O)nc1C(=O)NC(C(=O)NC(C)C(O)CC(=O)NC(C(=O)NC(OC1OC(C)C(N)C(O)C1O)C(O)c1nc(-c2nc(C(=O)NCCCC(N)CC(=O)NCCCN)cs2)cs1)C(C)O)C(OC1OC(CO)C(O)C(O)C1OC1OC(CO)C(O)C(OC(N)=O)C1O)c1c[nH]cn1 (centres unmarked) ; what minimum inhibitory concentration (MIC) value has been reported?
A: 3.1

Q: Here is the next compound: Cc1c(N)nc(C(CC(N)=O)NCC(N)C(N)=O)nc1C(=O)NC(C(=O)NC(C)C(O)CC(=O)NC(C(=O)NC(OC1OC(C)C(N)C(O)C1O)C(O)c1nc(-c2nc(C(=O)NCCCC(N)CC(=O)NCCCN(CCO)CCO)cs2)cs1)C(C)O)C(OC1OC(CO)C(O)C(O)C1OC1OC(CO)C(O)C(OC(N)=O)C1O)c1c[nH]cn1 (centres unmarked)
A: 12.5

Q: Here is the next compound: Cc1c(N)nc(C(CC(N)=O)NCC(N)C(N)=O)nc1C(=O)NC(C(=O)NC(C)C(O)CC(=O)NC(C(=O)NC(OC1OC(C)C(N)C(O)C1O)C(O)c1nc(-c2nc(C(=O)NCCCN)cs2)cs1)C(C)O)C(OC1OC(CO)C(O)C(O)C1OC1OC(CO)C(O)C(OC(N)=O)C1O)c1c[nH]cn1 (centres unmarked)
A: 12.5

Q: Here is the next compound: Cc1c(N)nc(C(CC(N)=O)NCC(N)C(N)=O)nc1C(=O)NC(C(=O)NC(C)C(O)CC(=O)NC(C(=O)NC(OC1OC(C)C(N)C(O)C1O)C(O)c1nc(-c2nc(C(=O)NCCCC(N)CC(=O)NCCCCN)cs2)cs1)C(C)O)C(OC1OC(CO)C(O)C(O)C1OC1OC(CO)C(O)C(OC(N)=O)C1O)c1c[nH]cn1 (centres unmarked) [Tallysomycin S10a]
A: 3.1

Q: Here is the next compound: Cc1c(N)nc([C@H](CC(N)=O)NC[C@H](N)C(N)=O)nc1C(=O)N[C@H](C(=O)N[C@H](C)[C@@H](O)CC(=O)N[C@H](C(=O)NC(O[C@@H]1O[C@@H](C)[C@@H](N)[C@@H](O)[C@H]1O)C(O)c1nc(-c2nc(C(=O)NCCCCN)cs2)cs1)[C@@H](C)O)[C@@H](O[C@@H]1O[C@@H](CO)[C@@H](O)[C@H](O)[C@@H]1O[C@H]1O[C@H](CO)[C@@H](O)[C@H](OC(N)=O)[C@@H]1O)c1cnc[nH]1 (some centres unmarked) [Tallysomycin S10b]
A: 12.5

###

Test system: Staphylococcus aureus Smith
Assay: MIC, two-fold agar dilution method
Format: cell-based
Settings: nutrient agar
Some compounds, each annotated with its measured minimum inhibitory concentration (MIC).
Respond numerically, and do not add a unit to the figure.

// below: answered compounds
>>> obs_value("Cc1c(N)nc(C(CC(N)=O)NCC(N)C(N)=O)nc1C(=O)NC(C(=O)NC(C)C(O)CC(=O)NC(C(=O)NC(OC1OC(C)C(N)C(O)C1O)C(O)c1nc(-c2nc(C(=O)NCCCN3CCOCC3)cs2)cs1)C(C)O)C(OC1OC(CO)C(O)C(O)C1OC1OC(CO)C(O)C(OC(N)=O)C1O)c1c[nH]cn1 (stereo not drawn) [Tallysomycin S12b]")
12.5
>>> obs_value("Cc1c(N)nc(C(CC(N)=O)NCC(N)C(N)=O)nc1C(=O)NC(C(=O)NC(C)C(O)CC(=O)NC(C(=O)NC(OC1OC(C)C(N)C(O)C1O)C(O)c1nc(-c2nc(C(=O)NCCCNCCO)cs2)cs1)C(C)O)C(OC1OC(CO)C(O)C(O)C1OC1OC(CO)C(O)C(OC(N)=O)C1O)c1c[nH]cn1 (stereo not drawn) [Tallysomycin S6b]")
6.3

Q: Suppose we examine the compound Cc1c(N)nc(C(CC(N)=O)NCC(N)C(N)=O)nc1C(=O)NC(C(=O)NC(C)C(O)CC(=O)NC(C(=O)NC(OC1OC(C)C(N)C(O)C1O)C(O)c1nc(-c2nc(C(=O)NCCCC(N)CC(=O)NCCC[S+](C)C)cs2)cs1)C(C)O)C(OC1OC(CO)C(O)C(O)C1OC1OC(CO)C(O)C(OC(N)=O)C1O)c1c[nH]cn1 (stereo not drawn) [Tallysomycin S2a] ; what minimum inhibitory concentration (MIC) value has been reported?
A: 0.2

###

Test system: Lymphocytic leukemia P388
Experiment: animal or person
Assay type: in vivo, BDF1 mice
Settings: ip, once daily 9 days; dose giving T/C survival of 125%; copper-chelated form unless otherwise stated
assay_readout: Antitumor activity P388 (ED125) (mg/kg/day)
Report only the number, with the unit mg/kg/day understood.

// below: answered molecules
>>> obs_value("Cc1c(N)nc(C(CC(N)=O)NCC(N)C(N)=O)nc1C(=O)NC(C(=O)NC(C)C(O)CC(=O)NC(C(=O)NC(OC1OC(C)C(N)C(O)C1O)C(O)c1nc(-c2nc(C(=O)NCCCN(CCO)CCO)cs2)cs1)C(C)O)C(OC1OC(CO)C(O)C(O)C1OC1OC(CO)C(O)C(OC(N)=O)C1O)c1c[nH]cn1 (stereo not drawn) [Tallysomycin S8b]")
1.5
>>> obs_value("CNCCCNC(=O)CC(N)CCCNC(=O)c1csc(-c2csc(C(O)C(NC(=O)C(NC(=O)CC(O)C(C)NC(=O)C(NC(=O)c3nc(C(CC(N)=O)NCC(N)C(N)=O)nc(N)c3C)C(OC3OC(CO)C(O)C(O)C3OC3OC(CO)C(O)C(OC(N)=O)C3O)c3c[nH]cn3)C(C)O)OC3OC(C)C(N)C(O)C3O)n2)n1 (stereo not drawn) [Tallysomycin S11a]")
0.60
>>> obs_value("Cc1c(N)nc(C(CC(N)=O)NCC(N)C(N)=O)nc1C(=O)NC(C(=O)NC(C)C(O)CC(=O)NC(C(=O)NC(OC1OC(C)C(N)C(O)C1O)C(O)c1nc(-c2nc(C(=O)NCCCC(N)CC(=O)NCCCNCCCCN)cs2)cs1)C(C)O)C(OC1OC(CO)C(O)C(O)C1OC1OC(CO)C(O)C(OC(N)=O)C1O)c1c[nH]cn1 (stereo not drawn) [Tallysomycin A (Cu-free), reference compound]")
0.26

Q: Give Lymphocytic leukemia P388 Antitumor activity P388 (ED125) for Cc1c(N)nc(C(CC(N)=O)NCC(N)C(N)=O)nc1C(=O)NC(C(=O)NC(C)C(O)CC(=O)NC(C(=O)NC(OC1OC(C)C(N)C(O)C1O)C(O)c1nc(-c2nc(C(=O)NCCCC(N)CC(=O)NCCCCN)cs2)cs1)C(C)O)C(OC1OC(CO)C(O)C(O)C1OC1OC(CO)C(O)C(OC(N)=O)C1O)c1c[nH]cn1 (stereo not drawn) [Tallysomycin S10a]
A: 0.28

Q: Here is the next molecule: Cc1c(N)nc(C(CC(N)=O)NCC(N)C(N)=O)nc1C(=O)NC(C(=O)NC(C)C(O)CC(=O)NC(C(=O)NC(OC1OC(C)C(N)C(O)C1O)C(O)c1nc(-c2nc(C(=O)NCCCN3CCOCC3)cs2)cs1)C(C)O)C(OC1OC(CO)C(O)C(O)C1OC1OC(CO)C(O)C(OC(N)=O)C1O)c1c[nH]cn1 (stereo not drawn) [Tallysomycin S12b]
A: 1.30

Q: Here is the next molecule: Cc1c(N)nc(C(CC(N)=O)NCC(N)C(N)=O)nc1C(=O)NC(C(=O)NC(C)C(O)CC(=O)NC(C(=O)NC(OC1OC(C)C(N)C(O)C1O)C(O)c1nc(-c2nc(C(=O)NCCCC(N)CC(=O)NCCCNCCO)cs2)cs1)C(C)O)C(OC1OC(CO)C(O)C(O)C1OC1OC(CO)C(O)C(OC(N)=O)C1O)c1c[nH]cn1 (stereo not drawn) [Tallysomycin S6a]
A: 0.70

###

System: Staphylococcus aureus Smith
Assay: MIC, two-fold agar dilution method
Type: cell-based
Conditions: nutrient agar
assay_readout: minimum inhibitory concentration (MIC)
Respond numerically, and do not add a unit to the figure.

>>> obs_value("Cc1c(N)nc(C(CC(N)=O)NCC(N)C(N)=O)nc1C(=O)NC(C(=O)NC(C)C(O)CC(=O)NC(C(=O)NC(OC1OC(C)C(N)C(O)C1O)C(O)c1nc(-c2nc(C(=O)NCCNCCO)cs2)cs1)C(C)O)C(OC1OC(CO)C(O)C(O)C1OC1OC(CO)C(O)C(OC(N)=O)C1O)c1c[nH]cn1 (centres unmarked)")
0.4

Consider the additional molecule presented here.
Q: Suppose we examine the molecule Cc1c(N)nc(C(CC(N)=O)NCC(N)C(N)=O)nc1C(=O)NC(C(=O)NC(C)C(O)CC(=O)NC(C(=O)NC(OC1OC(C)C(N)C(O)C1O)C(O)c1nc(-c2nc(C(=O)NCCCN)cs2)cs1)C(C)O)C(OC1OC(CO)C(O)C(O)C1OC1OC(CO)C(O)C(OC(N)=O)C1O)c1c[nH]cn1 (centres unmarked) ; what minimum inhibitory concentration (MIC) value has been reported?
A: 1.6
